As shown below, each of these variants has a reported yeast fitness value.
B1: tRNA (parent)
chain: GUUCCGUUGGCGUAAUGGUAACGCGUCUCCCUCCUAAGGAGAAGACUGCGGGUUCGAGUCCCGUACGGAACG

Variants of: B1
test_details: yeast fitness relative to wild type (ratio to wild type); higher = fitter; tRNA-Arg(CCU), competitive growth, 37 C, YPD
This sample holds only a part of the variants without activity.
quantity_measured: yeast fitness

In [3]: df
Out[3]:
                             record_sequence  result
 0  GUUCCGUUGGCGUAACGGUACUGCGUCUCCCUCCUAAGGAGAAGACUGCGGGUUCGAGUCCCGUACGGAACG [U16C A21C C22U]   ≤ 0.5
 1  GUUCCGUUGGUGUAAUGGUAACGCGUCUCCCUCCUAAGGAGGAGACUGCGGGUUCGAGUCCGGUACGGUACG [C11U A42G C62G A69U]   ≤ 0.5
 2  GUUCCGUUGGAGUAAUGGUAACGCGUCUCCCUUCUAAGGAGAAGACUGUGGGUUCGAGUGCCGUACGGAACG [C11A C33U C49U C60G]   ≤ 0.5
 3  GUUCCAUUGGCGUAAUGGUAAUGCGUCUCCGUCCUAAGGAGAAGACUGCGGGUUCGAGUCCCGUACGGAACG [G6A C22U C31G]   ≤ 0.5
 4  GUUCUGUUGGCGUAAUGGUAAGGCGUCUGCCUCCUAAGGAGAAGACUGCGGGUUCGAGUCCCGUACGGUACG [C5U C22G C29G A69U]   ≤ 0.5
 5  GUUCGGUUGGCGUAAUGGUAACGCGUCUCCUUCCUAAGGACACGACUGCGGGUUCGAGUGCCGUACGGAACG [C5G C31U G41C A43C C60G]   ≤ 0.5
 6  GUUCCGUUGGCGUAAUGCUAACACCUCUCCCUCCCAGGGAGACGACUGCGGGUUGGAGUCCCGUACGAAACG [G18C G23A G25C U35C A37G A43C C55G G68A]   ≤ 0.5
 7  GUUCCGUUGGCGUAAUGGUAACGUGUCUCCCUCCUAAGGAGAAGACACCGGGUGCGAGUCCCGUCCGGAACG [C24U U47A G48C U54G A65C]   ≤ 0.5
 8  GUUCCGUUGGCGUAGUGGUAACGCGUCUCCCUCCUAAGGAGCAGAAUGCGGGUUCGAGUCCCGUACGGAACG [A15G A42C C46A]   ≤ 0.5
 9  GUUCCGUAGGCGUAAUGAUAACGCGUCUCACACCAAAGGAGAAGACUGCGGGUUCGAGUCCCGUACAGAACG [U8A G18A C30A U32A U35A G67A]   ≤ 0.5
10  GUUCAGUUGGCGUUAUGGUAACGCGUCUCCCUCCUAAGGAGAAGACUGCGGGAUCGAGUCCCGUACGGAACG [C5A A14U U53A]   ≤ 0.5
11  GCUCGGUUGGCGUAAUGGUAACGUGUCUCCCUCCUAACAAGAAGACUGCGGGUUCGAGUCCCGUACGGAACG [U2C C5G C24U G38C G39A]   ≤ 0.5
12  GUUCCGGUGGCGUAAUGGUAGCGCGCCUCCAUCCUAACGAGAAGACUGCGGGUUCGAGUCCCGUACGGAACG [U7G A21G U26C C31A G38C]   ≤ 0.5
13  GUUCCGUUGGCGUAAUGGUGACGCGUCUCCCUACUCAGGAGAAGACAGCGGGUUCGAGUCCCGUACGGAACG [A20G C33A A36C U47A]   ≤ 0.5
14  GUUCUGUUGGCGUAAUCGUAACGCGUCUCACUCCUAAGGAGAAGACUGCAGGUUCGAGUCCCGUAGGGAACG [C5U G17C C30A G50A C66G]   ≤ 0.5
15  GUUCCGUUGGCGUCAUGGUAACGCGUCUCCCUCCUAAGGAGAAGACUGCGGGUUGGUGUCCUGUACGGAACG [A14C C55G A57U C62U]   ≤ 0.5
16  GUUUCGAUGGCGUAAUGGUAACGCGUCUCCCUCCUACGGAGAAGACUGCGGGUUCGAGUCCCGUACGGAACG [C4U U7A A37C]   ≤ 0.5
17  GUUCCGUUGGCGUAAUGGUAAGGCGUCUCCCUCAUAAGGAGGAGACUGCGGGUUCGAGUCCCGUAAGGAACG [C22G C34A A42G C66A]   ≤ 0.5
18  GUUCCGUUGGCGUAAUGGUAACGCGUCUCACUCCCGAGGAGCAGACUGCGGGUUCGAGUUUCGUACGGAACG [C30A U35C A36G A42C C60U C61U]   ≤ 0.5
19  GUUCCGUUCGCGUAAUGGUAACGCGUCUUCCUCCUAAGGAGAAGACUGAGGGUUCGAGUCUCGUACGGAACG [G9C C29U C49A C61U]   ≤ 0.5
20  GUUCGGUUGGCGUGAUAGUAACGCGUCUCCCCCCUAAGGAGAAGACUGCGGGUUCCAGUCCCGUACGGUACG [C5G A14G G17A U32C G56C A69U]   ≤ 0.5
21  GUUCCGUUGCCGUAAUGGUAACGCGAUUCCCUCCUAAGGAGGAGACUGCGGGUUCGAGUCCCGUACGGAGCG [G10C U26A C27U A42G A70G]   ≤ 0.5
22  GUUCUGUUGGCGUGAUGGUAUCGCGUCUCCCUCCUAAGGAGAAGACUGCGGGUUCCAGUCCCGUACGCAACG [C5U A14G A21U G56C G68C]   ≤ 0.5
23  GUUCCGUUGGCGUAAUGGUAACGCGUCUUACUCCUAAGGAGAAGACUGCGGGUUCGAGUCUCGUACGGAACG [C29U C30A C61U]   ≤ 0.5
24  GGUCCGUUGGCGUAAUGGUAACGCGUCUCCCUCCUAAGGAGAAGACGGCGGGUUCGAGUCCCGUACUGAACG [U2G U47G G67U]   ≤ 0.5
25  GUUCCGUUGGCGUAAUGGUAACGCGUCUCCAUCCUAAGGAGAUGACUGCGGGUACGAGUCCCGUACGGAACG [C31A A43U U54A]   ≤ 0.5
26  GUUCUGAUGGCGUAAUGGUAACGCGUCUCCCUCCAUAGGAGAAGUCUGCGGGUUCGAGUGCCGUACGGAACG [C5U U7A U35A A36U A45U C60G]   ≤ 0.5
27  GUUCCGUUGGCGUAAUGGUUGCGCGUGUCCCUCCUAAGGAGAAGACUGCGGGUUCGAGUCCCGUACGGAACG [A20U A21G C27G]   ≤ 0.5
28  GUUCCGUUGGCGUAAUGGUAACGCGUCUACCUCCUAAGGAGAAGACUGCGGGUUCGGGUCCCGUCCGGAACG [C29A A57G A65C]   ≤ 0.5
29  GUUCCGUUGGCGUAAUGAUAACGGGUCUCCCUCCUAAGGAGAAGACUGCGGGUUCGAGUCCCGUAUGGAACG [G18A C24G C66U]   ≤ 0.5
30  GUUCCGUUGGCGUAAUGGUCACGCGUCUCCCUCCUAAGCAGAAGACUGCGGGUUCGAGUCCCGUACGGAACG [A20C G39C]   0.723
31  GUUCCGUUGGCGUAAUGGAAACGCGUCUCCCUCCUAAGGAGAAGACUGCGGGUACGAGUCCCGUACGGAACG [U19A U54A]   0.706
32  GUUCCGUUGGCGUAAUGGUAACGCGUCUCCCUCCUAAGGAGAAGACUGCGGGUUCGACUCCCGUACCGAACG [G58C G67C]    1.17
33  GUUCAGUUGGCGUAAUGGUAACGCGUCUCCCUCCUAAGAAGAAAACUGCGGGUUCGAGUCCGGUAGGGAACG [C5A G39A G44A C62G C66G]   ≤ 0.5
34  GUUCCGUUGGCGAAAUGGUAACGCGUCCCCCUCCUAAGGAAAAAACUGCGGGUUCGAGUCCCGUACGGAUCG [U13A U28C G41A G44A A70U]   ≤ 0.5
35  GUUCGGUUGGCGUAAUCGUAACCCGUCUCCCUCCUAAGGAGAAGACUGCGGGUUCGCGUCCCGUACGGAACG [C5G G17C G23C A57C]   ≤ 0.5
36  GUUGCGUUGGCGUAAUGGUAACGCGUCUACCUCUUUAGGAGAAGACUGCAGGUUCGAGUCCCGUACGGAACG [C4G C29A C34U A36U G50A]   0.568
37  GUUCCGUUGGCGUAAUGGUAACGCGUCUCCGUCCUAAGGAGAACACUGCGGCUUCGAGUGCCGUACGGAACG [C31G G44C G52C C60G]   ≤ 0.5
38  GUUCCGUUGCCGUAAUGGUAACCCGUCUCCCUCCUAAGGAGGAGACUGCAGGUUCGCGUCCCGUACAGAACG [G10C G23C A42G G50A A57C G67A]   ≤ 0.5
39  GUUCCGUUGGCGUAAUGGUAAAGCGUCUCCCUCCUAAGGAGAAGACUGUGCGUUCGAGUCCCGUACGGAACG [C22A C49U G51C]   ≤ 0.5
40  GUCCCGUCGGCGUAAUGGUAACGCGUCUCCCUCCUAAGGAGAAGACUGCGGGUUCGAGUCCCGUACGGAACG [U3C U8C]   0.906
41  GUUCCGUUGGCGUAAUGGUAACGCGUCUCCCUCCUAAGGAGAACACUGCGGGUUCGAGUACCGUACGGAACG [G44C C60A]   0.572
42  GUUCCGUUGGCGUAAUGGUAACGGGUCUCCCUCCUAUGGAGAAGACUGUGGGUUCGAGACCCGUACGGAACG [C24G A37U C49U U59A]   ≤ 0.5
43  GUCCCGUUGGCGUAAUGGUAACGCGUCUCCCUCCUAAGGAGAAGUCUGGGGGUUCGAGUCCCGUACGGAACG [U3C A45U C49G]   0.678
44  GGUCCGUUGGCGUAAUGGAAGCGCGUCUCCCUCCUAAGGAGCAGACUCAGGGUUCGAGUCCCGUACGGAACG [U2G U19A A21G A42C G48C C49A]   ≤ 0.5
45  GUUCCGUUGGCGUUGUGGUAACGCGUCUCCCUCCUAAGGAGAAGACUGCGGGUUGGAGUCGCGUACGGAACG [A14U A15G C55G C61G]   0.637
46  GUUCCGUUGGCGUAAGGGUAACGCGUCUCCCUCCUAAGGAGAAGACUGCGGGUUCGGGUCCGGUAUGGAACG [U16G A57G C62G C66U]   0.517
47  GUUCCGUUGGCGUAAUGGUAACGCGUCUCCCUCCGAAGGGGAAGACUGCGGGUGCGAGUCCCGUACGGAACG [U35G A40G U54G]   ≤ 0.5
48  GUUCCGUAGGCGUAAUGGUAACGCGUCUCGCUCCUAAGGAGAAGACUGCGGGUUCGAGUCCCGUACGGAACG [U8A C30G]   ≤ 0.5
49  GUUCCGUUGGCGUAGUGGUAACGCGUCUCCCUCCUAAGGUGAAGACUGCGGGUUCGAGUCCCGUACGGAACG [A15G A40U]   0.767
50  GUUACGUUGGCGUAAUGGUAACGCGUCUCCCUCCUAAGGAGAAGACUGCGGGUUCGAGUCCCCUACGGAACG [C4A G63C]   0.748
51  GUUCCGUUGACGUGAUGGUAACGCGCCUCCCUCCUUAGGAGAAGACUGCGGAUUCGAGUCCCGUACGGAACG [G10A A14G U26C A36U G52A]   ≤ 0.5
52  GUUCCGUUGGCGCAAUGGUAACGCGUCUACCUCCUAAGGAGAAGACUGCGGGUUCGAGUCCCGUACGGCACG [U13C C29A A69C]   0.576
53  GUUCCGUUGGCGUAAUGGUAGCGCGUGUCCCUCCUAAGGAGUAGACUGCGGGUUCGAGUCCCGUACGGAACG [A21G C27G A42U]   ≤ 0.5
54  GUUCCGUGGAGGUAAUGGGAACGCGUCUCCCUCCUAAGGGGAAGACUGCGGGUUUGAGUUCCGUACGGAACG [U8G G10A C11G U19G A40G C55U C60U]   0.511
55  GUUCCGUUAGCGUAAUGGUAACGCGUCUCCCUCCUAAGGAGAAGACUGCGGGUUCGAGUCCCGUUCGGAACG [G9A A65U]    0.93
56  GUUCCGUUGCCAUAAUGGUAACGCGUCUCCCUCCUAAGGAGAAGACUGCGGGUACGAGUCCCGUACGAAACG [G10C G12A U54A G68A]   ≤ 0.5
57  GUUCCGUUGGCGCAAUGGUAACGCGUCUCCCUCCUAAGGAGAGGACUGCCGGUUCGAGUCCCGUACAGAACG [U13C A43G G50C G67A]   ≤ 0.5
58  GUUCCGUUGGCGAAAUGGUAACGCGUCUCCCUCCUAAGAAGAAGACUGCGGGUUCGAGUCCCGUACGGAACG [U13A G39A]   0.782
59  GUUCCGUUGGCGUAAUGGUAACGCAUCUCCCUCCUAAGGAGAAGGCUGCCGGUUCGAGUCCCGUACGGAACG [G25A A45G G50C]   0.516
60  GUUCCGUUGCCGUUAUGGUAACGCGUCUCCCUCCUAACGAGAAGACUGCGGGUUCGAGUCCCGUACGGAACG [G10C A14U G38C]   0.736
61  GUUCCGUUGACGUAAUGGUAACGCGUCUCCCUCCUAAGGAGAAGACUGCGGGUUCGAGUCCCGCACGGAACG [G10A U64C]   0.793
62  GCUCCGUUGGCGUAAUGGUAACGCGUCUCCCUUCUAAGGAGAAGACUGCGGGUUCGAGUCCCGUACGGAACG [U2C C33U]   0.862
63  GUUCCGUUGGCGUAAUGGUAACGCGGCUCCCUCCUAAGGAGAAGACUGCGCGUUCGAGUCCCGUACGGAACG [U26G G51C]   0.588
64  GUUCCGUUGGCGUAAUGGUAACGCGUCUCCCUGCUAAGGAGAAGACUGGGGGUUUGAGUCCCGUACGGAACG [C33G C49G C55U]   ≤ 0.5
65  GUUCCAUUGGGGUAAUGGUAAGGCGUCUCCCUCCUAAGGAGAAGACUGAGAGUUCGAGUCCCGUACGGAACG [G6A C11G C22G C49A G51A]   ≤ 0.5
66  GUUCCGUUGGCGUAAUGGUAACGCGUCUCCCUCCUAAGGAGAAGCCUGCGGGUUCGAGUCCCGUACUGAACG [A45C G67U]   0.874
